Target: LXRβ (Homo sapiens)
Sequence (P55055 222-460 limits assumed): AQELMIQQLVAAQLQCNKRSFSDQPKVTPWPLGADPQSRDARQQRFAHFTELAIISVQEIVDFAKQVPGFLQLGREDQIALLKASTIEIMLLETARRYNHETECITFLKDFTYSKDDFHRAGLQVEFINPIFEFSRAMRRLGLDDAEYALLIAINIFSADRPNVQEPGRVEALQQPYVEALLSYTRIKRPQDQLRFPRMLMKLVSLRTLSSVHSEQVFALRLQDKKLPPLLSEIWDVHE
Details: LXRβ versus LXRα
assay-readout: LXR isoform selectivity, SRC-1 recruitment

compound="CC(CCC(=O)N(C)C)C1CCC2C3CC=C4CC(O)CCC4(C)C3CCC12C (stereo not drawn) [DMHCA, N,N-dimethyl-3β-hydroxy-cholenamide]" measured=nonselective
compound="CC(C)C(O)CC[C@@H](C)[C@H]1CC[C@H]2[C@@H]3CC=C4C[C@@H](O)CC[C@]4(C)[C@H]3CC[C@]12C (some centres unmarked) [24HC, 24-hydroxycholesterol]" measured=nonselective

---

Target: UniProtKB P55055
Conditions: read-out: Potency (EC50) for SRC-1 recruitment to LXRβ
assay-readout: EC50 (µM)
Give bare numbers, in µM.

Ask: Entry under review: CC(C)(O)c1cn(-c2ccc(-c3cc(F)c(CO)c(S(C)(=O)=O)c3)cc2F)c(C(C)(C)c2c(Cl)cccc2Cl)n1 . Reported EC50?
Result: 0.01

Values were extracted from paper doi:10.1101/2025.09.12.675753.
